Where these numbers come from: patent US20210255193A1

TARGET DESC: AGFG1 Arf-GAP domain and FG repeat-containing protein 1 (Homo sapiens)
Construct: isoTOP-ABPP experiments performed in cell lysates (in vitro); endogenous in cells; host or cells: soluble proteome of human cancer cell lines (MDA-MB-231, Ramos, Jurkat)
Sequence (P52594 whole entry, the tested form may be a part): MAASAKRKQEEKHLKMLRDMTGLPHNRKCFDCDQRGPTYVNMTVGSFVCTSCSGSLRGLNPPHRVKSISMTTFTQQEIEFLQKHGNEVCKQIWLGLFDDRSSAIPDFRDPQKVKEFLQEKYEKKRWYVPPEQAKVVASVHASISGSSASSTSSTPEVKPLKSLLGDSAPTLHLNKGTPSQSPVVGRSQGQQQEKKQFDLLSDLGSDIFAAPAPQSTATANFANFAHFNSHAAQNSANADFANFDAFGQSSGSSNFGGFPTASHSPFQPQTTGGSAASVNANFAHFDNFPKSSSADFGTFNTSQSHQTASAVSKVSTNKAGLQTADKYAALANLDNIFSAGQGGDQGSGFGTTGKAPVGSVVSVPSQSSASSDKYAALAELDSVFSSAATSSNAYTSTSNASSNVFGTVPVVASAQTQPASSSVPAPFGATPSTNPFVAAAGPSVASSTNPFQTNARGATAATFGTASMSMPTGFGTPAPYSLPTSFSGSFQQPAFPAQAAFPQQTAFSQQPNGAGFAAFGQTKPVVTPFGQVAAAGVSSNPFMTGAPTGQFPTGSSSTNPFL
METHOD SUMMARY: competitive isoTOP-ABPP
Assay type: binding
STUDY CONDITIONS: P52594_K134; 50 uM, 231 sol, in vitro
Description: In vitro covalent fragment treatment for isoTOP-ABPP. All compounds were made up as solutions in DMSO (100×) and were used at a final concentration of 50 μM for activated esters and 100 μM for guanidinylating agents. […] R value calculation and processing. The ratios of light and heavy MS1 peaks for each unique peptide were quantified with a CIMAGE software using default parameters (3 MS1 acquisitions per peak and signal to noise threshold set to 2.5). […]
R value (DMSO/fragment) for probe 1 labeling values, listed per item
METRIC: R value (DMSO/fragment) for probe 1 labeling

COMPOUND	NUMERIC READOUT
COc1cc(CCC(=O)Oc2c(F)c(F)c(F)c(F)c2F)cc(OC)c1OC	1.7
O=C(CCc1cn(-c2ccccc2)nc1-c1ccccc1)Oc1c(F)c(F)c(F)c(F)c1F	1.0
O=C(Oc1c(F)c(F)c(F)c(F)c1F)C(c1ccccc1)c1ccccc1 [fragment 20, Pentafluorophenyl 2,2-diphenylacetate]	1.0
Cn1cc(CC(=O)Oc2c(F)c(F)c(F)c(F)c2F)c2ccccc21	1.4
